Here, each record is paired with measured glomerular width data.
- Test system: Danio rerio Tg(wt1b:EGFP) embryo, pronephros
- testName: glomerular width (mean of left and right), fold change vs DMSO control; higher = wider glomerulus
- appliedConditions: 25 µM; exposure: 24-48 hpf
Structures can show the parent of a compound that is named as a salt.
Simply state the number, no unit and no words.

Illustrative cases are given below, each with its answer.
compound	recordedValue
CO/N=C(\C(=O)N[C@@H]1C(=O)N2C(C(=O)O)=C(COC(N)=O)CS[C@H]12)c1ccco1 [Cefuroxime sodium salt]	0.997
Clc1ccc(Cn2c(CN3CCCC3)nc3ccccc32)cc1 [Clemizole hydrochloride]	1.03
CN(C)[C@@H]1C(O)=C(C(=O)NCNCCCC[C@H](N)C(=O)O)C(=O)[C@@]2(O)C(O)=C3C(=O)c4c(O)cccc4[C@@](C)(O)[C@H]3C[C@@H]12	0.916

Kindly review the next compound as well.
Q: Consider the compound shown here: NC12CC3CC(CC(C3)C1)C2 [Adamantamine fumarate] What is its recorded glomerular width?
Result: 1.07

----------
Here, each record is paired with measured fraction of imaged embryos annotated as normal kidney data.
- Tested on: Danio rerio Tg(wt1b:EGFP) embryo, pronephros
- testName: fraction of imaged embryos annotated as normal kidney; higher = less nephrotoxic; extreme values may be limits of the assay
- appliedConditions: 25 µM; exposure: 24-48 hpf
Structures can show the parent of a compound that is named as a salt.
Simply state the number, no unit and no words.

Illustrative cases are given below, each with its answer.
compound	recordedValue
CC(C)c1c(C(=O)Nc2ccccc2)c(-c2ccccc2)c(-c2ccc(F)cc2)n1CC[C@@H](O)C[C@@H](O)CC(=O)O	0
CN(C)CCCOc1nn(Cc2ccccc2)c2ccccc12 [Benzydamine hydrochloride]	1
CN1CCC(=C2c3ccccc3CCc3sccc32)CC1 [Pizotifen malate]	1
CCCCc1nc(Cl)c(CO)n1Cc1ccc(-c2ccccc2-c2nnn[nH]2)cc1	0.75
NS(=O)(=O)c1cc2c(cc1C(F)(F)F)NCNS2(=O)=O [Hydroflumethiazide]	0.727
Cc1c(N(C)C)c(=O)n(-c2ccccc2)n1C	0.917
Cc1cc2c(s1)Nc1ccccc1N=C2N1CCN(C)CC1	0.917
C[C@H](CS)C(=O)N1CCC[C@H]1C(=O)O	1

Kindly review the next compound as well.
Q: Entry C[C@]12CC[C@@H]3c4ccc(O)cc4CC[C@H]3[C@@H]1CCC2=O , system Danio rerio Tg(wt1b:EGFP) embryo, pronephros: what fraction of imaged embryos annotated as normal kidney was measured?
Result: 1

----------
- Test system: Danio rerio Tg(wt1b:EGFP) embryo, pronephros
- testName: pronephric angle neck segment to proximal convoluted tubule (mean of left and right), fold change vs DMSO control; higher = larger pronephric angle
- appliedConditions: 25 µM; exposure: 24-48 hpf
Structures can show the parent of a compound that is named as a salt.
valueKind: pronephric angle neck segment
Simply state the number, no unit and no words.

molecule	valueKind	recordedValue
COc1cccc(N(C)C(=S)Oc2ccc3c(c2)CCCC3)n1 [Liranaftate]	pronephric angle neck segment	1.06
CN(C)CCCN1c2ccccc2CCc2ccc(Cl)cc21 [Clomipramine hydrochloride]	pronephric angle neck segment	1.06
C#C[C@]1(O)CC[C@H]2[C@@H]3CCC4=CC(=O)CC[C@@H]4[C@H]3CC[C@@]21C	pronephric angle neck segment	1
CN1[C@@H]2CC[C@H]1C[C@@H](OC(=O)C(O)c1ccccc1)C2 (mixture of isomers) [Homatropine hydrobromide (R,S)]	pronephric angle neck segment	0.964
CCCc1nc(C)c2c(=O)nc(-c3cc(S(=O)(=O)N4CCN(CC)CC4)ccc3OCC)[nH]n12	pronephric angle neck segment	0.981
C#CCN(C)CCCOc1ccc(Cl)cc1Cl [Clorgyline hydrochloride]	pronephric angle neck segment	0.984
Cc1cccn2c(=O)c(-c3nnn[nH]3)cnc12	pronephric angle neck segment	0.99
CCN1CCC[C@H]1CNC(=O)c1c(O)c(Cl)cc(Cl)c1OC [Raclopride]	pronephric angle neck segment	1.02

Kindly review the next molecule as well.
Q: Consider the molecule shown here: CCOC(=O)C1=C(C)NC(C)=C(C(=O)OC)C1c1cccc(Cl)c1Cl (stereo unspecified) What is its recorded pronephric angle neck segment?
Result: 1.44
